# Test name: Cytotoxicity (CCK-8)
# Format: cell-based
# Setup conditions: human, HK-2 cells and HepG2 cells; HK-2 and HepG2, 24 h; selection criterion
Quantity kind: IC50 at 24 h

Exam item: Output IC50 at 24 h of CC(C)=CC[C@H](OC(=O)C=C(C)C)C1=CC(=O)c2c(O)ccc(O)c2C1=O [β,β-Dim, β,β-dimethylacrylalkannin]
Marked response: > 10 µM
